Reported melting point values for a set of compounds

Field: example entries. Status: answers known.
[[record]]
chemicalsmiles = "CNC(=O)COC(=O)NCCC[C@H]1OC[C@H](c2cccc3cc(OC)ccc32)CO1"
quantity = "melting point"
reading = "128 to 130 °C"

[[record]]
chemicalsmiles = "NC(=O)COC(=O)NCCC[C@H]1OC[C@H](c2cccc3cc(OCC4CC4)ccc32)CO1"
quantity = "melting point"
reading = "137 to 139 °C"

[[record]]
chemicalsmiles = "CNC(=O)COC(=O)NCCC[C@H]1OC[C@H](c2ccc3ccccc3c2)CO1"
quantity = "melting point"
reading = "144 to 146 °C"

[[record]]
chemicalsmiles = "CNC(=O)COC(=O)NCCC[C@H]1OC[C@H](c2cccc3cc(Cl)ccc32)CO1"
quantity = "melting point"
reading = "182 to 184 °C"

[[record]]
chemicalsmiles = "COc1ccc2c(cccc2[C@H]2CO[C@H](CCCNC(=O)OCC(=O)NCc3ccncc3)OC2)c1"
quantity = "melting point"
reading = "152 °C"


Query block: State its melting point: O=C(NCCC[C@H]1OC[C@H](c2cccc3cc(OCC4CC4)ccc32)CO1)Oc1ccc(Cl)cc1
Result block: 159 to 162 °C

Query block: Hello, please tell me recorded melting point for this one: CCNC(=O)COC(=O)NCCC[C@H]1OC[C@H](c2cccc3cc(OC)ccc32)CO1
Result block: 170 to 172 °C

Query block: Give recorded melting point. COc1ccc2c(cccc2[C@H]2CO[C@H](CCCNC(=O)OCC(=O)NC3CC3)OC2)c1
Result block: 176 °C

Query block: Supply recorded melting point for CNC(=O)COC(=O)NCC[C@H]1OC[C@H](c2cccc3ccccc32)CO1 here.
Result block: 86 to 88 °C

Query block: Note down melting point recorded for NC(=O)COC(=O)NCCC[C@H]1OC[C@H](c2cccc3ccccc32)CO1
Result block: 112 to 114 °C

Query block: Name the recorded melting point of the compound listed here: COc1ccc2cccc([C@H]3CO[C@H](CCCNC(=O)OCC(N)=O)OC3)c2c1
Result block: 156 to 158 °C

Query block: Indicate the recorded melting point value for this compound: CNC(=O)COC(=O)NCCC[C@H]1OC[C@H](c2cccc3ccc(OC)cc32)CO1
Result block: 144 to 146 °C

Query block: Query melting point for COc1ccc2c(cccc2[C@H]2CO[C@H](CCNC(=O)OCC(F)(F)F)OC2)c1
Result block: 93 to 95 °C

Query block: Query melting point for O=C(NCCC[C@H]1OC[C@H](c2cccc3ccccc32)CO1)OCC(F)(F)F
Result block: 89 to 92 °C

Query block: Write down melting point measured for item NC(=O)COC(=O)NCCC[C@H]1OC[C@H](c2ccc(Cl)c3ccccc32)CO1
Result block: 176 to 178 °C
